Recorded Ki for the following compounds
# study.target: human 5-HT3 serotonin receptors (Homo sapiens (Human))
# Sequence (P46098 24-478): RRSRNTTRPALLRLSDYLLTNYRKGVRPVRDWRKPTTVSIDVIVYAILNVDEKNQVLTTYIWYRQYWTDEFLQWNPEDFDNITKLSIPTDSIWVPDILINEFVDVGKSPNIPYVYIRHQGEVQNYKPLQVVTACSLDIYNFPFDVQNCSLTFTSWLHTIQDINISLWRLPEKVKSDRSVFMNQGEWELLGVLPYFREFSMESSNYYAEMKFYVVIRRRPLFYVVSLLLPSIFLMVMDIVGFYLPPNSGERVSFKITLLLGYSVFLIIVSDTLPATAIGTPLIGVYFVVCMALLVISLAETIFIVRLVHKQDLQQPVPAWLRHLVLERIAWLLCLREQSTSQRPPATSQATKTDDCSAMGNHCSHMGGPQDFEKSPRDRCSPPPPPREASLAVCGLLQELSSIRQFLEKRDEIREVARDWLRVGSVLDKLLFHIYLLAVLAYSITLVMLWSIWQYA
# experimental.details: [3H]BRL 43694 competition binding
# stated.conditions: CHO cell membranes, [3H]BRL 43694, Cheng Prusoff; read-out: h-5HT3 Ki
Counter-ions that a name gives are not always drawn.

compound	Ki
CCOc1cccc2cc(C(=O)N[C@@H]3C4CCN(CC4)C34CC4)sc12 [(R)-190, hydrochloride]	290 nM
O=C(N[C@@H]1C2CCN(CC2)C12CC2)c1cc2cccc(-c3nccs3)c2s1 [(R)-181, hydrochloride]	83 nM
O=C(N[C@@H]1C2CCN(CC2)C12CC2)c1ccc2c(c1)OCCO2 [(R)-107, hydrochloride]	> 10000 nM
Cc1ccc2cc(C(=O)N[C@@H]3C4CCN(CC4)C3(C)C)sc2c1 [(R)-15, hydrochloride]	> 10000 nM
O=C(N[C@@H]1C2CCN(CC2)C12CC2)c1cc2ccc(Cl)c(Cl)c2s1 [(R)-150, hydrochloride]	2200 nM
CC1(c2cccc3cc(C(=O)N[C@@H]4C5CCN(CC5)C4(C)C)sc23)CC1 [(R)-133, hydrochloride]	400 nM
COc1c(F)ccc2cc(C(=O)N[C@@H]3C4CCN(CC4)C34CC4)sc12 [(R)-197, hydrochloride]	2800 nM
CC1(C)[C@H](NC(=O)c2cc3cc(F)c(Cl)cc3s2)C2CCN1CC2 [(R)-123, hydrochloride]	> 10000 nM
Cc1csc2ccc(C(=O)N[C@@H]3C4CCN(CC4)C3(C)C)cc12 [(R)-24, hydrochloride]	820 nM
O=C(NC1C2CCN(CC2)C12CC2)c1ccc2ccsc2c1 (single isomer, unassigned; enantiomer1) [58a]	910 nM
O=C(N[C@@H]1C2CCN(CC2)C12CC2)c1ccc2sccc2c1 [(R)-83, hydrochloride]	2400 nM
O=C(N[C@@H]1C2CCN(CC2)C12CC2)c1ccc2cc[nH]c2c1 [(R)-79]	750 nM
CC1(C)[C@H](NC(=O)c2cc3cccc(CC(F)(F)F)c3s2)C2CCN1CC2 [(R)-127, hydrochloride]	1100 nM
COc1ccc2cc(C(=O)N[C@@H]3C4CCN(CC4)C3(C)C)sc2c1 [(R)-20, hydrochloride]	> 10000 nM
Cc1ccc2cc(C(=O)N[C@@H]3C4CCN(CC4)C34CC4)sc2c1F [(R)-106, hydrochloride]	> 10000 nM
O=C(N[C@@H]1C2CCN(CC2)C12CC2)c1cc2ccc3c(c2s1)CCCO3 [(R)-204, hydrochloride]	> 10000 nM
CC1(C)[C@H](NC(=O)c2cc3ccc(C#N)cc3s2)C2CCN1CC2 [(R)-9, hydrochloride]	> 10000 nM
O=C(N[C@@H]1C2CCN(CC2)C12CC2)c1cc2ccc(N3CCOCC3)cc2s1 [(R)-99, hydrochloride]	> 10000 nM
O=C(NC1C2CCN(CC2)C12CC2)c1cc2cccc(C(F)(F)F)c2s1 (single isomer, unassigned; enantiomer1) [60a]	1010 nM
O=C(N[C@@H]1C2CCN(CC2)C12CC2)c1cc2ccc(Br)cc2s1 [(R)-101, hydrochloride]	> 10000 nM
O=C(N[C@@H]1C2CCN(CC2)C12CC2)c1cc2cccc(OC(F)(F)F)c2s1 [(R)-167, hydrochloride]	895 nM
O=C(N[C@@H]1C2CCN(CC2)C12CC2)c1cc2cc(F)c(Cl)cc2s1 [(R)-172, hydrochloride]	4900 nM
Cc1csc2ccc(C(=O)N[C@@H]3C4CCN(CC4)C34CC4)cc12 [(R)-77, hydrochloride]	660 nM
CC1(C)[C@H](NC(=O)c2cc3cccc(-c4nccs4)c3s2)C2CCN1CC2 [(R)-129, hydrochloride]	440 nM
Cc1ccc2cc(C(=O)N[C@@H]3C4CCN(CC4)C3(C)C)sc2c1F [(R)-53, hydrochloride]	5900 nM
O=C(N[C@@H]1C2CCN(CC2)C12CC2)c1cc2ccsc2cn1 [(R)-97, hydrochloride]	430 nM
COc1c(C)ccc2cc(C(=O)N[C@@H]3C4CCN(CC4)C34CC4)sc12 [(R)-193, hydrochloride]	6000 nM
O=C(N[C@@H]1C2CCN(CC2)C12CC2)c1cc2ccc(C3CC3)c(F)c2s1 [(R)-159, hydrochloride]	> 10000 nM
CC1(C)[C@H](NC(=O)c2cc3ccc(F)cc3s2)C2CCN1CC2 [(R)-8, hydrochloride]	6500 nM
COc1cc2sc(C(=O)N[C@@H]3C4CCN(CC4)C34CC4)cc2cc1F [(R)-173, hydrochloride]	> 10000 nM
O=C(N[C@@H]1C2CCN(CC2)C12CC2)c1cc2ccc(Cl)cc2o1 [(R)-163, hydrochloride]	2000 nM
